assay-info: Volume of distribution at steady state in iv dosed rat
Assay type: ADME, organism-based
protocol-conditions: in vivo, read-out: Vdss
experimental-endpoint: Vd

Which measured Vd value corresponds to CC1(C)CC(Nc2cc(NCc3cnccc3C(F)(F)F)ncc2C#N)CC(C)(C)N1 ?
27.7 L/kg

----------
assay-info: Oral bioavailability in rat at 10 mg/kg
Type: ADME, organism-based
protocol-conditions: in vivo
experimental-endpoint: bioavailability (%)
Please give a number only; it is taken to be in %.

Given CC(F)(F)COc1ncncc1CNc1ncc(C#N)c(N[C@@H]2CC[C@H](O)C(C)(C)C2)n1 , state its recorded bioavailability.
66
